- Experimental Target: MRGPRX4 (Homo sapiens)
- Assay Summary: MRGPRX4 activation, Fluo-8 Ca2+ FLIPR assay in HEK293T cells stably expressing MRGPRX4
- Type: cell-based
- Measurement Parameters: Conc. (Log[M]) −5.5
Items are presented alongside their recorded MRGPRX4 activation, fluorescence change (dF/F0), Average.
Readout: MRGPRX4 activation, fluorescence change (dF/F0), Average

[
  {
    "Structure Notation": "C[C@H](CCCO)[C@H]1CC[C@H]2[C@@H]3CC[C@@H]4CCCC[C@]4(C)[C@H]3CC[C@]12C",
    "Experimental Result": "−0.023"
  },
  {
    "Structure Notation": "CC[C@H]1[C@@H](O)[C@@H]2[C@H](CC[C@]3(C)[C@@H]([C@H](C)CC(=O)O)CC[C@@H]23)[C@@]2(C)CCCC[C@@H]12",
    "Experimental Result": "−0.062"
  },
  {
    "Structure Notation": "C[C@H](CCC(=O)O)[C@H]1CC[C@H]2[C@@H]3CC[C@@H]4CC(=O)CC[C@]4(C)[C@H]3CC[C@]12C",
    "Experimental Result": "−0.020"
  }
]

----------
- Experimental Target: MRGPRX4 (Homo sapiens, UniProt Q96LA9)
- Sequence (Q96LA9 whole entry): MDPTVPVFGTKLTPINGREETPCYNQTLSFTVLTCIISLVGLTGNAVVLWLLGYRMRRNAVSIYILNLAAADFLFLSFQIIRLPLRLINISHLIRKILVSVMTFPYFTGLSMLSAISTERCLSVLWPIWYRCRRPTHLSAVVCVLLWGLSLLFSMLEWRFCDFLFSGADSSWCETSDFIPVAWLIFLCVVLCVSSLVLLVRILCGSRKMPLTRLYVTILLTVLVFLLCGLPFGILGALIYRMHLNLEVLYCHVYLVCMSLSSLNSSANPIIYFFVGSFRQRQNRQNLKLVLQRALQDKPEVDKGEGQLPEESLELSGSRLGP
- Assay Summary: MRGPRX4 activation, Fluo-8 Ca2+ FLIPR assay in HEK293T cells stably expressing MRGPRX4
- Format: cell-based
- Measurement Parameters: Conc. (Log[M]) −4.5
Cut-off 0.03 on MRGPRX4 activation, fluorescence change (dF/F0), Average, inclusive. At or above means TRUE; below means FALSE.

[
  {
    "Molecule": "C[C@]12CC[C@@H](O)C[C@H]1CC[C@@H]1[C@@H]2C[C@H](O)[C@]2(C)[C@@H](CCCCCC(=O)O)CC[C@@H]12 [RC-3]",
    "Group": "TRUE"
  },
  {
    "Molecule": "CC[C@H]1[C@@H](O)[C@@H]2[C@H](CC[C@]3(C)[C@@H]([C@H](C)CCNC(=O)NS(=O)(=O)C4CCCCC4)CC[C@@H]23)[C@@]2(C)CCCC[C@@H]12 [5-3]",
    "Group": "TRUE"
  },
  {
    "Molecule": "CC[C@H]1[C@@H](O)[C@@H]2[C@H](CC[C@]3(C)[C@@H]([C@H](C)CCNC(=O)NS(=O)(=O)c4ccc5c(c4)CCN5C(C)=O)CC[C@@H]23)[C@@]2(C)CCCC[C@@H]12 [5-4]",
    "Group": "FALSE"
  },
  {
    "Molecule": "CC[C@H]1[C@@H](O)[C@@H]2[C@H](CC[C@]3(C)[C@@H]([C@H](C)CCNC(=O)NS(=O)(=O)C4CCC(C)(C)CC4)CC[C@@H]23)[C@@]2(C)CCCC[C@@H]12 [5-5]",
    "Group": "TRUE"
  },
  {
    "Molecule": "CC[C@H]1[C@@H](O)[C@@H]2[C@H](CC[C@]3(C)[C@@H]([C@H](C)CCC(=O)O)CC[C@@H]23)[C@@]2(C)CCCC[C@@H]12 [compound 10]",
    "Group": "FALSE"
  },
  {
    "Molecule": "CC[C@H]1[C@@H](O)[C@@H]2[C@H](CC[C@]3(C)[C@@H]([C@H](C)CCC(=O)NS(=O)(=O)C(C)(C)C)CC[C@@H]23)[C@@]2(C)CCCC[C@@H]12 [4-1]",
    "Group": "TRUE"
  },
  {
    "Molecule": "CC[C@H]1[C@@H](O)[C@@H]2[C@H](CC[C@]3(C)[C@@H]([C@H](C)CCC(=O)OC)CC[C@@H]23)[C@@]2(C)CCCC[C@@H]12 [1-4]",
    "Group": "FALSE"
  },
  {
    "Molecule": "CC[C@H]1[C@@H](O)[C@@H]2[C@H](CC[C@]3(C)[C@@H]([C@H](C)CCNC(=O)NS(=O)(=O)c4cccc(Cl)c4)CC[C@@H]23)[C@@]2(C)CCCC[C@@H]12 [5-7]",
    "Group": "FALSE"
  },
  {
    "Molecule": "CC[C@H]1[C@@H](O)[C@@H]2[C@H](CC[C@]3(C)[C@@H]([C@H](C)CO)CC[C@@H]23)[C@@]2(C)CCCC[C@@H]12 [compound 73]",
    "Group": "TRUE"
  },
  {
    "Molecule": "C[C@H](CCC(=O)O)[C@H]1CC[C@H]2[C@@H]3[C@H](O)C[C@@H]4C[C@H](O)CC[C@]4(C)[C@H]3CC[C@]12C [CDCA, chenodeoxycholic acid, reference compound]",
    "Group": "TRUE"
  },
  {
    "Molecule": "C[C@H](CCC(=O)O)[C@H]1CC[C@H]2[C@@H]3CC[C@@H]4C[C@@H](O)CC[C@]4(C)[C@H]3C[C@H](O)[C@]12C [RC-5]",
    "Group": "TRUE"
  },
  {
    "Molecule": "C[C@H](CCC(=O)O)[C@H]1CC[C@H]2[C@@H]3CC[C@@H]4CC(=O)CC[C@]4(C)[C@H]3CC[C@]12C [compound 16]",
    "Group": "TRUE"
  },
  {
    "Molecule": "CC[C@H]1[C@@H](O)[C@@H]2[C@H](CC[C@]3(C)[C@@H]([C@H](C)CCNC(=O)NS(=O)(=O)c4ccc(C(C)(CO)CO)cc4)CC[C@@H]23)[C@@]2(C)CCCC[C@@H]12 [5-22]",
    "Group": "FALSE"
  },
  {
    "Molecule": "CC[C@H]1[C@@H](O)[C@@H]2[C@H](CC[C@]3(C)[C@@H]([C@H](C)CCNC(=O)NS(=O)(=O)c4ccc(C)cc4)CC[C@@H]23)[C@@]2(C)CCCC[C@@H]12 [5-8]",
    "Group": "TRUE"
  },
  {
    "Molecule": "C[C@H](CC/C=C/C(=O)O)[C@H]1CC[C@H]2[C@@H]3CC[C@@H]4C[C@H](O)CC[C@]4(C)[C@H]3CC[C@]12C [1-7]",
    "Group": "FALSE"
  },
  {
    "Molecule": "C[C@H](CC(=O)O)[C@H]1CC[C@H]2[C@@H]3CC[C@@H]4C[C@H](O)CC[C@]4(C)[C@H]3C[C@H](O)[C@]12C [RC-1]",
    "Group": "TRUE"
  },
  {
    "Molecule": "CC(C[C@@H](C)[C@H]1CC[C@H]2[C@@H]3CC[C@@H]4CCCC[C@]4(C)[C@H]3CC[C@]12C)C(=O)O (some centres unmarked) [2-1]",
    "Group": "FALSE"
  },
  {
    "Molecule": "C[C@H](CCC(C)(C)O)[C@H]1CC[C@H]2[C@@H]3CC[C@@H]4CCCC[C@]4(C)[C@H]3CC[C@]12C [2-3]",
    "Group": "FALSE"
  },
  {
    "Molecule": "CC[C@H]1[C@@H](O)[C@@H]2[C@H](CC[C@]3(C)[C@@H]([C@H](C)CC#N)CC[C@@H]23)[C@@]2(C)CCCC[C@@H]12 [2-4]",
    "Group": "FALSE"
  },
  {
    "Molecule": "CC[C@H]1[C@@H](O)[C@@H]2[C@H](CC[C@]3(C)[C@@H]([C@H](C)CCNC(=O)NS(=O)(=O)c4ccc(C(C)(C)C(=O)O)cc4)CC[C@@H]23)[C@@]2(C)CCCC[C@@H]12 [5-10]",
    "Group": "TRUE"
  },
  {
    "Molecule": "CC[C@H]1[C@@H](OC(=O)c2cccc(I)c2)[C@@H]2[C@H](CC[C@@]3(C)[C@H]2CC[C@]3(Cl)[C@H](C)CCC(=O)OC)[C@@]2(C)CCCC[C@@H]12 [1-6]",
    "Group": "FALSE"
  },
  {
    "Molecule": "CC[C@H]1[C@@H](O)[C@@H]2[C@H](CC[C@]3(C)[C@@H]([C@H](C)CCNC(=O)NS(=O)(=O)c4ccc(C(C)(C)C#N)cc4)CC[C@@H]23)[C@@]2(C)CCCC[C@@H]12 [5-17]",
    "Group": "FALSE"
  }
]
